biological target: human MC4 receptor (Homo sapiens, UniProt P32245); construct: host or cells: CHO-K1; assay: Affinity assay: displacement of [125I]-[Nle4-D-Phe7]-α-MSH binding to cell membranes (SPA); conditions: membranes of CHO-K1 cells expressing human MC4 receptor; radioligand 100 pM; read-out: IC50 with respect to the MC4 receptor
Sequence (P32245 whole entry): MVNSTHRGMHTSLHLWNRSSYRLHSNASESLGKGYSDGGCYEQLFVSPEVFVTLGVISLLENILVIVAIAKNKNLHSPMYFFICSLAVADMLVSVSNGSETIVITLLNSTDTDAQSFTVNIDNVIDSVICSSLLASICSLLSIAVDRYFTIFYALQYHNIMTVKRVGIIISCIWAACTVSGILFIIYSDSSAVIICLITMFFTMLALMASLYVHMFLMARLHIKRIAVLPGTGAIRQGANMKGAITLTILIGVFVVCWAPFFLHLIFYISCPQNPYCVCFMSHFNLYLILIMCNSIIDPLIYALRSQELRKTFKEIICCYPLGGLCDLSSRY
PROPERTY_LABEL: pIC50
Bear in mind: pIC50 is minus log10 of a mol/L concentration; give just that figure.

Kindly note the recorded pIC50 for O=C([C@@H](Cc1ccc(Cl)cc1)NC1CCOCC1)N1CCC(Cn2cncn2)(C2CCCCC2)CC1 , which is 6.24

* * *

Readings of EC50 for the listed molecules
target: human MC4 receptor (Homo sapiens, UniProt P32245); construct: host or cells: CHO-K1; experiment: Functional assay of agonist activity: cAMP formation; assay type: cell-based; conditions: CHO-K1 cells expressing human MC4 receptor, 1 hour incubation, read-out: EC50 with respect to the MC4 receptor
Hi! Could you send only the number? It should be in nM, unit omitted.

Some molecules with known EC50 results, for comparison:
>  <MOLECULE_SMILES>
O=C([C@@H](Cc1ccc(Cl)cc1)NC1CCOCC1)N1CCC(Cn2cncn2)(C2CCCCC2)CC1

>  <RESULT_UNITS>
nM

>  <EC50>
60

$$$$
>  <MOLECULE_SMILES>
N[C@H]1CC[C@@H](N[C@H](Cc2ccc(Cl)cc2)C(=O)N2CCC(Cn3cncn3)(C3CCCCC3)CC2)CC1

>  <RESULT_UNITS>
nM

>  <EC50>
20

$$$$

# next molecule below
# molecule O=C([C@@H](Cc1ccc(Cl)cc1)NC1CCNCC1)N1CCC(Cn2cncn2)(C2CCCCC2)CC1 ; its EC50 = 50
